Data credit: ChEMBL document CHEMBL3988442

Field: Percent Effect. Provide a value for each of the molecules that follow.
biological target: Arginase-2, mitochondrial (Homo sapiens) (UniProt P78540); assay: in vitro enzyme assay to detect the production of urea directly proportional to the activity of Arginase II; type: functional; parameters: scale not given: in the data most compounds retested in dose-response had high values; details: 33.3 µM
Sequence (P78540 whole entry): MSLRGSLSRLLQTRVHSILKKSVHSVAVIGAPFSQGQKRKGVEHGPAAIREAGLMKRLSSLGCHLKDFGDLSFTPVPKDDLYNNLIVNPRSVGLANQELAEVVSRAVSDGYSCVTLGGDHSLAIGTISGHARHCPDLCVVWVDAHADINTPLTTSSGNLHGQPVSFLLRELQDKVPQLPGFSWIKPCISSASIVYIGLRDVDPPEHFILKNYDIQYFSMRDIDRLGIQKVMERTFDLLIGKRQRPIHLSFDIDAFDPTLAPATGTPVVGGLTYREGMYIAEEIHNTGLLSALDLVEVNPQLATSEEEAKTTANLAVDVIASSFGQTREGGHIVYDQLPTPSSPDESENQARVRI
Numbers only, in %.

// worked examples, Percent Effect included
molecule=Cc1cccc(CN2C(=O)C[C@H]3[C@@H]2CCN3Cc2ccccn2)n1 outcome_measure="Percent Effect" result_number=-1.83
molecule="CN(C)c1ncc2c(n1)C1(CCN(Cc3ccccc3)C1)COC2 (stereo unspecified)" outcome_measure="Percent Effect" result_number=1.2
molecule=O=C1CC[C@@H]2[C@@H](CCN2Cc2ccncc2)N1c1ccccc1 outcome_measure="Percent Effect" result_number=0.896
molecule=c1cc(CO[C@@H]2CC[C@H]3[C@H]2OCCN3Cc2ccoc2)ccn1 outcome_measure="Percent Effect" result_number=2.23
molecule="COc1ccc(-c2n[nH]cc2C2SCC(=O)Nc3[nH]ncc32)cc1 (stereo unspecified)" outcome_measure="Percent Effect" result_number=-17.8
molecule=O=C(N[C@H]1CN[C@H]2CCCO[C@H]21)c1ccno1 outcome_measure="Percent Effect" result_number=-2.4
molecule="CCCN1CCN(Cc2nccn2CC)C(C)C1 (stereo unspecified)" outcome_measure="Percent Effect" result_number=-1.67
molecule=NC(=O)CN1CCCN(C(=O)Cc2ccc3c(c2)OCO3)CC1 outcome_measure="Percent Effect" result_number=3.55

Quick batch: Percent Effect for everything below.
1. O=C(Cc1ccc(O)c(Cl)c1)N1CCN(CC2CC2)[C@@H]2CS(=O)(=O)C[C@@H]21
2. CC1=N[C@@]2(CC[C@@H]3CNC[C@@H]32)C(=O)N1CC(C)C
3. Cc1cccc(C(=O)N2C[C@@H]3OCCN(C(C)C)[C@@H]3C2)n1

Key:
[0, 7.96, -50]
